kon: recorded values
target: T1, pig serum albumin (pig, UniProt P08835 25-607); assay: SPR (Biacore 8K), albumin immobilized on CM5 chip, 25 C, 1:1 kinetic fit
T1 construct: Bought protein, immobilized on a CM5 chip by amine coupling; also called Pig SA
Please reply with the bare figure in M⁻¹ s⁻¹ and do not write the unit itself.

# binder, unit.abbreviation, kon
rows = [
    ("RLN Analog 14 (other, Single-chain fusion: VHH - (PGPQ)8 L1 - RLN2 A chain (desA1-4) - L2 - RLN2 B chain (desB1)) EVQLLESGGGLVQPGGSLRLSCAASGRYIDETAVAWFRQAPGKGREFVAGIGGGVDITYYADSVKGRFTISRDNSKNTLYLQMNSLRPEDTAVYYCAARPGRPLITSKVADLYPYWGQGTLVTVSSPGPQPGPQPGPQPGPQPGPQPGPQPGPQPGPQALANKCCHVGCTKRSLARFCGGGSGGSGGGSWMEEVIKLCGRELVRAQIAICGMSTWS", "M⁻¹ s⁻¹", 970000),
    ("RLN Analog 3 (other, Single-chain fusion: VHH - (G4Q)5 L1 - RLN2 B chain (desB1) - L2 - RLN2 A chain) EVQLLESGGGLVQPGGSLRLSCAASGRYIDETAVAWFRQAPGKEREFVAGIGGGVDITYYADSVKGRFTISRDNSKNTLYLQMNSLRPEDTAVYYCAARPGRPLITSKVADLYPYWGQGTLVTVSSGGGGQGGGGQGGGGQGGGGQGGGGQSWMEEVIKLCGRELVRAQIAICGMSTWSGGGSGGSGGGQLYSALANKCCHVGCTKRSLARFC", "M⁻¹ s⁻¹", "1.1e+06"),
    ("RLN Analog 5 (other, Single-chain fusion: RLN2 B chain (desB1) - L2 - RLN2 A chain - (G4Q)5 L1 - VHH (C-terminal)) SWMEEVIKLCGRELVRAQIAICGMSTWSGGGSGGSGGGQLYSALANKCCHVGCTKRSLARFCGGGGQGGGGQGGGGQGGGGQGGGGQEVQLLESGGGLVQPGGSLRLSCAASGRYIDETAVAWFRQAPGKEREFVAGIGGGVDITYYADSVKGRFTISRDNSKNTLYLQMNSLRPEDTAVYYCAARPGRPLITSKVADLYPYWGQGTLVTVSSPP", "M⁻¹ s⁻¹", 580000),
    ("RLN Analog 9 (other, Single-chain fusion: RLN2 B chain (desB1) - L2 - RLN2 A chain - (G4Q)5 L1 - VHH (C-terminal)) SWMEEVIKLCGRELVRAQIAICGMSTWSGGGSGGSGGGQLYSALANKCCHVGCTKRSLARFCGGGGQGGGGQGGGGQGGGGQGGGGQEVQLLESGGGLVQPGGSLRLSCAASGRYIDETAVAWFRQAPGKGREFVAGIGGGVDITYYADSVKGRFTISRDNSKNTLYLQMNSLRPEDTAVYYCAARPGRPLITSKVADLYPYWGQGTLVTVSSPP", "M⁻¹ s⁻¹", 870000),
    ("RLN Analog 4 (other, Single-chain fusion: VHH - (PGPQ)8 L1 - RLN2 B chain (desB1) - L2 - RLN2 A chain) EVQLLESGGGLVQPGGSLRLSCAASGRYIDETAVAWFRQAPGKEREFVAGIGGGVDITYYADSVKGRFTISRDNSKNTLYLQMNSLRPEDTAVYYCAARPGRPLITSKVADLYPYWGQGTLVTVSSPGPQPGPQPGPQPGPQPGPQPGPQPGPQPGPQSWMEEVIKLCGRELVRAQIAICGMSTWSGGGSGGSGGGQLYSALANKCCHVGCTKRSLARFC", "M⁻¹ s⁻¹", 860000),
    ("RLN Analog 7 (other, Single-chain fusion: VHH - (G4Q)5 L1 - RLN2 B chain (desB1) - L2 - RLN2 A chain) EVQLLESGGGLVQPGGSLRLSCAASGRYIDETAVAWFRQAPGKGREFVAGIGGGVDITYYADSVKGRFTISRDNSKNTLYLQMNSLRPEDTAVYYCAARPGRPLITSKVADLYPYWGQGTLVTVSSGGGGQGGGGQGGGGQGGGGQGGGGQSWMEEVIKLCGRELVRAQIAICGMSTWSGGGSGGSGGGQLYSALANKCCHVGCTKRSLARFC", "M⁻¹ s⁻¹", "1.5e+06"),
    ("RLN Analog 1 (other) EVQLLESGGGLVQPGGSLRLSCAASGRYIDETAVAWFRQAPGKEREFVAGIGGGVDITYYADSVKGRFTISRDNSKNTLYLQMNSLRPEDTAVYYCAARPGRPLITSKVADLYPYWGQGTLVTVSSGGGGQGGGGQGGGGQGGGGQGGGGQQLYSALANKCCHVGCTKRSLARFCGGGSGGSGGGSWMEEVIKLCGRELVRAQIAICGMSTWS", "M⁻¹ s⁻¹", 780000),
    ("RLN Analog 2 (other, Single-chain fusion: VHH - (PGPA)8 L1 - RLN2 A chain - L2 - RLN2 B chain (desB1)) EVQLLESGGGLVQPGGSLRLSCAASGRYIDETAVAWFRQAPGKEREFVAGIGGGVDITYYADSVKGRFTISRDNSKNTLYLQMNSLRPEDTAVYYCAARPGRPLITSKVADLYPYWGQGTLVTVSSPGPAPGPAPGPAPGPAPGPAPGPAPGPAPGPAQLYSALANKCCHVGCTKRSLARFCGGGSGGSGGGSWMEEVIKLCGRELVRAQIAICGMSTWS", "M⁻¹ s⁻¹", 690000),
]

So for RLN Analog 10 (other, Single-chain fusion: RLN2 B chain (desB1) - L2 - RLN2 A chain - (PGPQ)8 L1 - VHH (C-terminal)) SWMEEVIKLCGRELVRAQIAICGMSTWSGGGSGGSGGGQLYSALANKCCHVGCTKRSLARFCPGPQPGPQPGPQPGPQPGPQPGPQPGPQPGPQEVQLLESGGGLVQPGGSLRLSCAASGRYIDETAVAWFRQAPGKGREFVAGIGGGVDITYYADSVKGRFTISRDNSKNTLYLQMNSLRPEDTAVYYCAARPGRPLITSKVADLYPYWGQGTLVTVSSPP , the logged kon turned out to be 490000

So for RLN Analog 13 (other, Single-chain fusion: VHH - (G4Q)5 L1 - RLN2 A chain (desA1-4) - L2 - RLN2 B chain (desB1)) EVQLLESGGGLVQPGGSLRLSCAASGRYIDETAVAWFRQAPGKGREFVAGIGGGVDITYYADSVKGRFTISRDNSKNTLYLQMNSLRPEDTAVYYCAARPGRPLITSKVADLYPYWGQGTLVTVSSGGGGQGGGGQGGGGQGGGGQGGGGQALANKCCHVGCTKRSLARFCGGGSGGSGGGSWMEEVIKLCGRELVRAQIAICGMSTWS , the logged kon turned out to be 1.2e+06
